Assay Text: yeast display, Sf9 membrane polyspecificity reagent, FACS + sequencing; frameworks hold sequencing errors
Experimental Readout: polyreactivity (PSR sort gate)

Study these solved cases before continuing.
QVQLVESGGGLVQAGGSLRLSCAASGFTFYTYAMGWYRQAPGKERELVAGISTRGGRTYYADSVKGRFTISRDNAKNTVYLQMNSLKPEDTAVYYCNAVDKTGKYDYWGQGTQVTVSS
high polyreactivity
QVQLVESGGGLVQAGGSLRLSCAASGYTIYRYAMGWYRQAPGNERELVAAISSAGTTNYADSVKGRFTISRDNAKNTVYLQINSLKPEDTAVYYCNKRGRNHNSLKYGYWGQGTQVTVSS
high polyreactivity
QVQLVESGGGLVQAGGSLRLICAASGFTFSWYVMGWYRQAPGKERELVATITNRGGSTYYADSVKGRFTISRDTAKNTVYLQMNSLKPEDTAVYYCAARKKGSRVGYDYCGQGTQVTVSS
high polyreactivity
QVQLVESGGGLVQAGGSLRLSCAASGRIFYLYGMGWYRQAPGKERELVAGITGSGGNTYYADSVKGRFTISRDNAMNTVYLQMNSLKPEDTAVYYCIARFRARPRMGYWGQGTQVTLSS
high polyreactivity
QVQLVESGGGLVQAGVSLRLSCAASGSIFGYYAMGWYRQAPGKERELVAAINYSGVSTYYADSVKGRFTISRDNAKNTVYLQMNSLKPDDTAVYYCAAKGRKSVYSRNSWGQGTQVTVSS
high polyreactivity
QVQIVESGGGLVQGGGSLRLSCAASGSIFGGNAMGWYRQAPGKERELVATITVRGGSTYNADSVKGRFTISRDNAKNTVYLQMNSLKPEDTAVYYCAARGVYLLPKYDYWGQGTQVTVSS
low polyreactivity
QVHLVDSGGGLVQAGGSLRLSCAASGSTFDYNAMGWYRQAPGQESELVAAISWRGGGTYYADSVKGRFTISRDNAKTTVYLQMNSLKPEDTAVYYCAASAYKGTGAEFDYWRQGTQVTVSS
low polyreactivity
QVQLQESAGGLVQAGGSLRLSCAASGTISTDSYMGWYRQAPGKERKFVATIGYGGITYYADSVKGRSTISRDSAKNTVYLQMNSLKPEDTAVYYCAVNSYYPDHYWYWGRGTQVTVSS
high polyreactivity

Exam item: Look up and state reported polyreactivity (PSR sort gate) for QVQLVESGGGLVQAGGSLRLSCAASGSTFFPNAMGWYRQAPGKERELIADISISGGSTRYADSVKGRFTISRDNEKNTVYLQMNSLKPEDTAVYYCAVRRSAFYARFGRNYWGQGTQVTVSS
Marked response: low polyreactivity

Exam item: For the sequence QVQLVESGGGLVQAGGSLRLSCAASGNIFHKNAMGWYSQAPGKERELVASISWSGGSTYYADSVKGRFTISRDNAKNTVYLQMKSLKPEDTAVYYCATDAFGYPGNRYALNDYWGQGTQVTVSS , report polyreactivity (PSR sort gate).
Marked response: low polyreactivity

Exam item: // Input: QVQLVESGGGLVQAGGSLRLSCAASGFTFDEKAMGWYRQAPGINYSGASTYYADSVKGRFTISRDNAKNTVYLQMNSLKPEDTAVYYCAAEVVAQMNYWGQGTQVTVSS . Output its polyreactivity (PSR sort gate) only.
Marked response: low polyreactivity

----------
Assay Text: yeast display, Sf9 membrane polyspecificity reagent, FACS + sequencing; frameworks hold sequencing errors
Experimental Readout: polyreactivity (PSR sort gate)

QVQLVESGGGLVQAGGSLRLSCAASGNIFPYYPMGWYRQAPGKERELVASISRSGGSTYYADSVKGRFTISRDNAKNTVYLQMNSLKPEDTAVYYCAKRTPYYGFGFFHPARGYGYWGQGTQVTVSS
low polyreactivity
QVQLVESGGGLVQAGGSLRLSCAASGRTFWYYAMGWYRQSPGKERELVAVITSGSSTYYADSVKGRFTISRDNAKNTDYLQMTSLKPEDTAVYYCAVGRTYRRYSAASYNYWGQGTQVTVSS
high polyreactivity
QVQLVESGGGLVQAGGSLRLSCAASGSIFPGYAMGWYRPAPGKDRELVATIPWSGGSTYYADSVKGRFTISRDNENNTVYLQMNSLKPEDTAVYYCYADSYWYYQWYYYGLYDYWGAGTQVTVSS
low polyreactivity
QVQLVESGGGLVQSGGSIRLSCAASGSTFDHYTMGWYRQAPGKERELVAAINRIGDSTYYADSVKGRFTISRDNAKNTVYLQMNSLKPEDTAVYDCAARHVPRFNKYGYWGQGTQVNVSS
high polyreactivity

// switching to the query sequence
Exam item: Give the measured polyreactivity (PSR sort gate) for QVQLVESGGGLVQAGGSLRLSCAASGITFFLYTMGWYRQAPGKERELVAAITWRGTSTYYADSVKGRFTISRDNAKNTVYLQMNSLKPEDTGVYYCAARSRRGGYPRYYYWGQGTQVTVSS
Marked response: high polyreactivity
